Tested on: Hepatotoxicity
procedureDetails: FDA HLAED, alkaline phosphatase increase
conditionLabel: human
assayMetric: Alkaline Phosphatase Increase - Index Value

>>> print(df.to_string())
                                   compound  result
0  CC(C)N1CCN(c2ccc(OCC3COC(Cn4cncn4)(c4ccc(Cl)cc4Cl)O3)cc2)CC1 (centres undefined) [TERCONAZOLE]       0
1  CC(C)(C)NC(=O)[C@@H]1CN(Cc2cccnc2)CCN1C[C@@H](O)C[C@@H](Cc1ccccc1)C(=O)N[C@H]1c2ccccc2C[C@H]1O.O    54.8
2  CCN1CCN(C(=O)N[C@@H](C(=O)N[C@@H]2C(=O)N3[C@@H]2SC(C)(C)[C@@H]3C(=O)O)c2ccccc2)C(=O)C1=O [PIPERACILLIN]     0.3
3  CN1CC[C@]23c4c5ccc(O)c4O[C@H]2C(=O)CC[C@H]3[C@H]1C5 [HYDROMORPHONE]       0
